target: actin binding domain (Homo sapiens)
Sequence (P11277 1-316): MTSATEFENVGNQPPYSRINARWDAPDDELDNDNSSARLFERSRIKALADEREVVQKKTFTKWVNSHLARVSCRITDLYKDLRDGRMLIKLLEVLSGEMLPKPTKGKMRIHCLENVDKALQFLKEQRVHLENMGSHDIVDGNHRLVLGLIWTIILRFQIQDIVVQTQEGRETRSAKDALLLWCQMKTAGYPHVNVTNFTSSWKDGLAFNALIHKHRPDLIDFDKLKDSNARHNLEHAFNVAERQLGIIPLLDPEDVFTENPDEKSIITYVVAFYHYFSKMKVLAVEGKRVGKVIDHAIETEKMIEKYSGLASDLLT
pKd: −log10 of the molar value.
Reported endpoint: pKd

| Structure notation | Reported |
| --- | --- |
| O=S(=O)(O)c1cccc2cccc(Nc3ccccc3)c12 | 4.19 |

----------
Biological target: spectrin repeat domain (Homo sapiens, UniProt P02549)
Sequence (P02549 1470-1576): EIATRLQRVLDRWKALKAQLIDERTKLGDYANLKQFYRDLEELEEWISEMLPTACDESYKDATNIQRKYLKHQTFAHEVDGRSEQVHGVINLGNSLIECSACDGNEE
pKd: −log10 of the molar value.
Reported endpoint: pKd

| Structure notation | Reported |
| --- | --- |
| O=S(=O)(O)c1cccc2cccc(Nc3ccccc3)c12 | 4.32 |

----------
target: SH3 domain (Homo sapiens); test: fluorescence reverse titration; format: binding
Reported endpoint: Kd (µM)

| Compound | Target or test system | Reported endpoint | Reported |
| --- | --- | --- | --- |
| O=S(=O)(O)c1cccc2cccc(Nc3ccccc3)c12 [ANS, 1-anilinonaphthalene-8-sulfonic acid] | SH3 domain (Homo sapiens) | Kd | 64 |

----------
Target: α-tetramerization domain (Homo sapiens)
Sequence (P02549 1-158): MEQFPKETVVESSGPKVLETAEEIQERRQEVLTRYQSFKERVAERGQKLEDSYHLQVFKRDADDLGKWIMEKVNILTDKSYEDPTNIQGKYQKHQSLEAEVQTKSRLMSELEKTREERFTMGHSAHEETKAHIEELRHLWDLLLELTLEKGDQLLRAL
pKd: −log10 of the molar value.
Reported endpoint: pKd

| Structure notation | Reported endpoint | Reported |
| --- | --- | --- |
| O=S(=O)(O)c1cccc2cccc(Nc3ccccc3)c12 | pKd | 4.34 |

----------
biological target: β-tetramerization domain (Homo sapiens)
Sequence (P11277 1895-2137): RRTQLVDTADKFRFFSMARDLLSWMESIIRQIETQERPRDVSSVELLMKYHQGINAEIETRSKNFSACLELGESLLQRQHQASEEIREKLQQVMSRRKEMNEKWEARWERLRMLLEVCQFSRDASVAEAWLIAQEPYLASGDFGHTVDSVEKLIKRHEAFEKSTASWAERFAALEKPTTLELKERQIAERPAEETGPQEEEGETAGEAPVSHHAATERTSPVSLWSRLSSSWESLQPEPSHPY

| Structure notation | Kd / µM |
| --- | --- |
| O=S(=O)(O)c1cccc2cccc(Nc3ccccc3)c12 | 48.2 |

----------
biological target: Self-association domain (reconstituted) (Homo sapiens, UniProt P02549+P11277); assay: fluorescence reverse titration
pKd: −log10 of the molar value.

| Structure notation | Target or test system | pKd |
| --- | --- | --- |
| O=S(=O)(O)c1cccc2cccc(Nc3ccccc3)c12 | Self-association domain (reconstituted) (Homo sapiens, UniProt P02549+P11277) | 4.41 |
